settings: in n-butanol, 303.35 K
measuredQuantity: solubility (mole fraction)
Numbers only.

What value of solubility (mole fraction) has been recorded for this entry: NC(=O)c1ccccc1N 0.0423

----------
conditions: in THF, 279.15 K
measuredQuantity: solubility (mole fraction)
Numbers only.

I'd like to know its solubility (mole fraction). The compound in question is NC(=O)c1ccccc1N 0.237

----------
conditions: in THF, 303.35 K
measuredQuantity: solubility (mole fraction)

Dear colleague, I am looking for the recorded solubility (mole fraction) of the following compound: NC(=O)c1ccccc1N 0.284

----------
details: in n-octanol, 283.65 K
measuredQuantity: solubility (mole fraction)
Give bare numbers.

Can you look up the measured solubility (mole fraction) of NC(=O)c1ccccc1N for me? 0.0176

----------
conditions: in isobutanol, 317.15 K
measuredQuantity: solubility (mole fraction)
Numbers only.

I am curious: what solubility (mole fraction) value has been reported for NC(=O)c1ccccc1N ? 0.0504

----------
settings: in n-octanol, 308.15 K
measuredQuantity: solubility (mole fraction)
One number for each entry.

Reported solubility (mole fraction), compound NC(=O)c1ccccc1N : ____ 0.0377

----------
details: in acetonitrile, 293.45 K
measuredQuantity: solubility (mole fraction)
Answers are plain numbers.

Endpoint output: solubility (mole fraction) of NC(=O)c1ccccc1N . Value? 0.0371

----------
details: in isobutanol, 273.15 K
measuredQuantity: solubility (mole fraction)
Give bare numbers.

Entry under review: NC(=O)c1ccccc1N . Reported solubility (mole fraction)? 0.0101

----------
conditions: in n-hexanol, 298.95 K
measuredQuantity: solubility (mole fraction)
One number for each entry.

Could you tell me which solubility (mole fraction) is on file for NC(=O)c1ccccc1N ? 0.0297

----------
conditions: in ethyl acetate, 293.45 K
measuredQuantity: solubility (mole fraction)
Answers are plain numbers.

Sample NC(=O)c1ccccc1N — what was its solubility (mole fraction)? 0.0856

----------
details: in n-hexanol, 318.15 K
measuredQuantity: solubility (mole fraction)
One number for each entry.

Recorded solubility (mole fraction) for NC(=O)c1ccccc1N , please? 0.0557

----------
conditions: in n-pentanol, 303.35 K
measuredQuantity: solubility (mole fraction)

What measured solubility (mole fraction) goes with NC(=O)c1ccccc1N ? 0.0379

----------
details: in isopropanol, 303.35 K
measuredQuantity: solubility (mole fraction)
Answers are plain numbers.

Suppose we examine the compound NC(=O)c1ccccc1N ; what solubility (mole fraction) value has been reported? 0.042

----------
conditions: in acetone, 313.15 K
measuredQuantity: solubility (mole fraction)
Numbers only.

# get_value(readout='solubility (mole fraction)', item= NC(=O)c1ccccc1N ) 0.313

----------
conditions: in n-butanol, 293.35 K
measuredQuantity: solubility (mole fraction)

For the molecule shown here, NC(=O)c1ccccc1N , give the reported solubility (mole fraction). 0.0312

----------
conditions: in isopropanol, 317.15 K
measuredQuantity: solubility (mole fraction)
Numbers only.

Reported solubility (mole fraction), compound NC(=O)c1ccccc1N : ____ 0.0676

----------
settings: in n-octanol, 298.95 K
measuredQuantity: solubility (mole fraction)

For NC(=O)c1ccccc1N , what is its reported solubility (mole fraction)? 0.0275

----------
details: in n-propanol, 313.15 K
measuredQuantity: solubility (mole fraction)

I would be grateful if you could share the reported solubility (mole fraction) for NC(=O)c1ccccc1N . 0.0728

----------
settings: in n-pentanol, 289.15 K
measuredQuantity: solubility (mole fraction)
Numbers only.

Look up solubility (mole fraction): NC(=O)c1ccccc1N 0.0243

----------
conditions: in THF, 319.15 K
measuredQuantity: solubility (mole fraction)
Give bare numbers.

Look at this compound and give its reported solubility (mole fraction). NC(=O)c1ccccc1N 0.326

----------
settings: in THF, 283.65 K
measuredQuantity: solubility (mole fraction)
Give bare numbers.

Could you tell me which solubility (mole fraction) is on file for NC(=O)c1ccccc1N ? 0.245

----------
conditions: in isopropanol, 273.15 K
measuredQuantity: solubility (mole fraction)
One number for each entry.

Which solubility (mole fraction) reading was recorded for the compound NC(=O)c1ccccc1N ? 0.0145

----------
conditions: in methyl acetate, 308.15 K
measuredQuantity: solubility (mole fraction)

Any idea what solubility (mole fraction) was measured for NC(=O)c1ccccc1N ? 0.144

----------
settings: in n-hexanol, 308.15 K
measuredQuantity: solubility (mole fraction)
Numbers only.

Value lookup for solubility (mole fraction); key = NC(=O)c1ccccc1N 0.0407

----------
conditions: in methyl acetate, 293.25 K
measuredQuantity: solubility (mole fraction)
One number for each entry.

Which value of solubility (mole fraction) has been reported for NC(=O)c1ccccc1N in the records? 0.1

----------
conditions: in THF, 299.15 K
measuredQuantity: solubility (mole fraction)
Answers are plain numbers.

Using the record for NC(=O)c1ccccc1N , report its solubility (mole fraction). 0.275

----------
conditions: in ethyl acetate, 279.15 K
measuredQuantity: solubility (mole fraction)
Numbers only.

Look at this compound and give its reported solubility (mole fraction). NC(=O)c1ccccc1N 0.0608

----------
details: in acetone, 308.65 K
measuredQuantity: solubility (mole fraction)
Answers are plain numbers.

Tell me the measured solubility (mole fraction) of NC(=O)c1ccccc1N , please. 0.292

----------
details: in methyl acetate, 303.25 K
measuredQuantity: solubility (mole fraction)
One number for each entry.

Bench note: what solubility (mole fraction) did NC(=O)c1ccccc1N show? 0.127

----------
conditions: in isopentanol, 289.15 K
measuredQuantity: solubility (mole fraction)

Quick one: solubility (mole fraction) for NC(=O)c1ccccc1N ? 0.0181

----------
conditions: in isobutanol, 303.35 K
measuredQuantity: solubility (mole fraction)
One number for each entry.

Which solubility (mole fraction) value is on record for NC(=O)c1ccccc1N ? 0.0301

----------
details: in isopropanol, 308.65 K
measuredQuantity: solubility (mole fraction)
Answers are plain numbers.

GET /values?readout=solubility (mole fraction)&item= NC(=O)c1ccccc1N 0.0505

----------
details: in isobutanol, 308.65 K
measuredQuantity: solubility (mole fraction)
One number for each entry.

Need solubility (mole fraction) of NC(=O)c1ccccc1N , thanks. 0.0369

----------
settings: in methyl acetate, 298.95 K
measuredQuantity: solubility (mole fraction)
Give bare numbers.

I have this compound here, NC(=O)c1ccccc1N , and I need its recorded solubility (mole fraction). 0.114

----------
conditions: in n-octanol, 318.15 K
measuredQuantity: solubility (mole fraction)
Answers are plain numbers.

Consider the compound NC(=O)c1ccccc1N and give its measured solubility (mole fraction). 0.0505

----------
conditions: in ethyl acetate, 299.15 K
measuredQuantity: solubility (mole fraction)
One number for each entry.

Consider the molecule shown here: NC(=O)c1ccccc1N What is its recorded solubility (mole fraction)? 0.0977

----------
conditions: in isobutanol, 289.15 K
measuredQuantity: solubility (mole fraction)

I would be grateful if you could share the reported solubility (mole fraction) for NC(=O)c1ccccc1N . 0.0176

----------
settings: in acetonitrile, 279.15 K
measuredQuantity: solubility (mole fraction)
Numbers only.

Quick one: solubility (mole fraction) for NC(=O)c1ccccc1N ? 0.0139

----------
conditions: in acetone, 317.15 K
measuredQuantity: solubility (mole fraction)
Give bare numbers.

Endpoint output: solubility (mole fraction) of NC(=O)c1ccccc1N . Value? 0.341

----------
conditions: in n-pentanol, 313.15 K
measuredQuantity: solubility (mole fraction)
Give bare numbers.

What measured solubility (mole fraction) goes with NC(=O)c1ccccc1N ? 0.0514

----------
details: in n-butanol, 324.15 K
measuredQuantity: solubility (mole fraction)
Answers are plain numbers.

// returns reported solubility (mole fraction) for input NC(=O)c1ccccc1N 0.0788

----------
conditions: in ethanol, 289.15 K
measuredQuantity: solubility (mole fraction)
Answers are plain numbers.

Name the recorded solubility (mole fraction) for NC(=O)c1ccccc1N . 0.0477

----------
settings: in ethanol, 298.95 K
measuredQuantity: solubility (mole fraction)

For the molecule shown here, NC(=O)c1ccccc1N , give the reported solubility (mole fraction). 0.0648

----------
details: in n-butanol, 279.15 K
measuredQuantity: solubility (mole fraction)
Answers are plain numbers.

Using the record for NC(=O)c1ccccc1N , report its solubility (mole fraction). 0.0198

----------
conditions: in n-propanol, 303.35 K
measuredQuantity: solubility (mole fraction)

# get_value(readout='solubility (mole fraction)', item= NC(=O)c1ccccc1N ) 0.0513

----------
conditions: in methyl acetate, 273.15 K
measuredQuantity: solubility (mole fraction)

Requested read-out: solubility (mole fraction). Entry: NC(=O)c1ccccc1N 0.0644

----------
conditions: in isopentanol, 293.25 K
measuredQuantity: solubility (mole fraction)
One number for each entry.

Can you look up the measured solubility (mole fraction) of NC(=O)c1ccccc1N for me? 0.0217

----------
conditions: in ethyl acetate, 283.65 K
measuredQuantity: solubility (mole fraction)
Numbers only.

Quick one: solubility (mole fraction) for NC(=O)c1ccccc1N ? 0.0684

----------
settings: in acetonitrile, 319.15 K
measuredQuantity: solubility (mole fraction)
Numbers only.

Query (molecule): NC(=O)c1ccccc1N ; field requested: solubility (mole fraction) 0.151

----------
details: in isopentanol, 323.15 K
measuredQuantity: solubility (mole fraction)
Answers are plain numbers.

Please report the recorded solubility (mole fraction) for NC(=O)c1ccccc1N . 0.0647

----------
conditions: in n-pentanol, 284.15 K
measuredQuantity: solubility (mole fraction)

I'd like to know its solubility (mole fraction). The compound in question is NC(=O)c1ccccc1N 0.0207

Cited source: BigSolDB 2.1
